# Study system: Cyclin Dependent Kinase 1/Cyclin A2 (CDK1-cycA2) (Homo sapiens)
# Construct: purchased ProQinase 0134-0054-1
# Sequence (P06493 whole entry): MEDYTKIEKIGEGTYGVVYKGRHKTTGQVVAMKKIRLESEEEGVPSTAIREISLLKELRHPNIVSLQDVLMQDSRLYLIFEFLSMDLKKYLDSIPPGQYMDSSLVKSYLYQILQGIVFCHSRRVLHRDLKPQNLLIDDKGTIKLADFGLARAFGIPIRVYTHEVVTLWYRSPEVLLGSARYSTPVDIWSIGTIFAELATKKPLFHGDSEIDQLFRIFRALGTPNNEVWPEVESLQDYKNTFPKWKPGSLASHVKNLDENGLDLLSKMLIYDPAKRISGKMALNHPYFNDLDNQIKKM
# Sequence (P20248 whole entry partner): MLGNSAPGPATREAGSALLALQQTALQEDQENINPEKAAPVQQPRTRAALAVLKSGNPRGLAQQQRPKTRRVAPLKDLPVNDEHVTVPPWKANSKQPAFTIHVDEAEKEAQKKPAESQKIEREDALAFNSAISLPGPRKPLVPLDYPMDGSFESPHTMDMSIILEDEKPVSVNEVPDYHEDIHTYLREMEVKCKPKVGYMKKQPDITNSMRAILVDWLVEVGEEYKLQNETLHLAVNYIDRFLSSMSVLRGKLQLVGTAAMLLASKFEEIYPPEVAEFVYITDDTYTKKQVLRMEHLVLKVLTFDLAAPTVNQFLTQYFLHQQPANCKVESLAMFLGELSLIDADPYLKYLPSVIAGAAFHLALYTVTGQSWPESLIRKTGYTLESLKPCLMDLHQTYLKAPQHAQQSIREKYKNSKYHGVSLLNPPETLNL
# Assay text: CDK1-cycA2 TR-FRET (Lance) enzyme assay
# Assay type: biochemical
# Run conditions: Table S, enzymatic assay

{"columns": ["Compound", "Ki"],
 "data": [
  ["CC(C)(C)NC(=O)O[C@@H]1CC[C@H](c2cc(Nc3ccccc3)n[nH]2)C1 [Comparator E, reference compound]", "33 nM"]
]}

###

# Study system: Cyclin Dependent Kinase 4/Cyclin D3 (CDK4-cycD3) (Homo sapiens, UniProt P11802)
# Construct: purchased Carna Biosciences 04-105
# Sequence (P11802 whole entry): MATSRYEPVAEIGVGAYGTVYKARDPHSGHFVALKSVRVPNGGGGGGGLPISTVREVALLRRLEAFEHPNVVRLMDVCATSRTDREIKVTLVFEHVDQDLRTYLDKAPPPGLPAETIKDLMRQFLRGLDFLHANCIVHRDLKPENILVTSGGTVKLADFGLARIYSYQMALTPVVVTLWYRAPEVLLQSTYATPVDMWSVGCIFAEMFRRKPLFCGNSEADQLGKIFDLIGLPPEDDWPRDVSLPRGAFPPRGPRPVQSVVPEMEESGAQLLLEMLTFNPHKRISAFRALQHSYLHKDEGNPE
# Sequence (P30281 whole entry partner): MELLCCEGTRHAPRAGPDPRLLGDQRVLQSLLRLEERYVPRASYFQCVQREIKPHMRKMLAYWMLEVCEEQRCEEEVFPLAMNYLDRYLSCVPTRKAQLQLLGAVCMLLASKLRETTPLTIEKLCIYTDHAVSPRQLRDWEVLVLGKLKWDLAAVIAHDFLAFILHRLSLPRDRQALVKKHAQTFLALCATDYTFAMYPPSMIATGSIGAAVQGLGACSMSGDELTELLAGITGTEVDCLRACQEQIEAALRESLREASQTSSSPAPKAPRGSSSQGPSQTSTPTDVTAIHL
# Assay text: CDK4-cycD3 TR-FRET (LANCE) enzyme assay
# Format: biochemical
# Run conditions: enzymatic assay, Table P
Quick reference for Ki among some molecules
Property measured: Ki (nM)

{"columns": ["Molecule", "Result value"],
 "data": [
  ["CC(C)(C)NC(=O)O[C@@H]1CC[C@H](c2cc(NC(=O)c3ccnnc3)n[nH]2)C1 [Comparator B, reference compound]", 250],
  ["CC(C)(C)NC(=O)O[C@@H]1CC[C@H](c2cc(NC(=O)Cc3ccnnc3)n[nH]2)C1 [Comparator A, reference compound]", 38]
]}

Values compiled from patent US20240425478A1.
